Data provenance: patent US10975056B2

Consider the following compounds; for each one, report its EC50.
- Test system: erythroid progenitor cells (EPCs)
- assay-remarks: Fetal hemoglobin (HbF) ELISA in day 7 erythroid progenitor cells;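 note: for fetal hemoglobin induction normalized to vehicle-treated cells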
- Format: cell-based, human
- experimental-conditions: Homo sapiens, Erythroid progenitor cell, HbF ELISA, day 7 EPCs, 5 days; read-out: EPC ELISA (pEC50 category) (converted)
Counter-ions that a name gives are not always drawn.

1) CCc1c(C#N)c(SCc2ccccc2)nc(N2CCC(NC(=O)C(C)(C)N)CC2)c1C#N [Example 95, Formic Acid Salt]    1000 to 31600 nM

Dear reader, for each entry below, please note its EC50.
1. CCc1c(C#N)c(SC(C(N)=O)c2ccccc2)nc(N(C)CCOC(=O)[C@@H](N)C(C)C)c1C#N (stereo partly drawn) [Example 275]
2. CCc1c(C#N)c(SC(C(N)=O)c2ccccc2)nc(N2CC3CC2CN3C)c1C#N (stereo not drawn) [Example 303]
3. CCc1c(C#N)c(SC(C(N)=O)c2ccccc2)nc(N(C)CC(N)=O)c1C#N (stereo not drawn) [Example 145]
4. CCc1c(C#N)c(SC(C(N)=O)c2ccccc2)nc(N2CCC(N3CCCC3)CC2)c1C#N (stereo not drawn) [Example 411]
5. CCc1c(C#N)c(SCCN2CCOCC2)nc(SC(C(N)=O)c2ccccc2)c1C#N (stereo not drawn) [Example 201]
6. CCc1c(C#N)c(SC(C(N)=O)c2ccccc2)nc(N(C)CC(=O)N2CCC(O)CC2)c1C#N (stereo not drawn) [Example 621]
7. CCc1c(C#N)c(S[C@@H](C(N)=O)c2ccccc2)nc(N2CC[C@H](N)[C@@H](F)C2)c1C#N [Example 519, Trifluoroacetic acid salt]

["316 to 1000 nM", "316 to 1000 nM", "< 316 nM", "< 316 nM", "316 to 1000 nM", "< 316 nM", "< 316 nM"]

Please go through the list and note EC50 for each compound.
1. N#Cc1c(SC(C(N)=O)c2ccccc2)nc(N2CCN(CCCN)CC2)c(C#N)c1C1CC1 (stereo not drawn) [Example 124]
2. CCc1c(C#N)c(SC(C(N)=O)c2ccccc2)nc(N2CCC(NC(=O)[C@H](C)N)CC2)c1C#N (stereo partly drawn) [Example 138, Trifluoroacetic Acid Salt]
3. CCc1c(C#N)c(SC(C(N)=O)c2ccccc2)nc(N(C)CC(=O)NO)c1C#N (stereo not drawn) [Example 679]
4. CCc1c(C#N)c(SC(C(N)=O)c2ccccc2)nc(N2CCN(Cc3cnsc3)CC2)c1C#N (stereo not drawn) [Example 197]
5. CCc1c(C#N)c(SC(C(N)=O)c2ccccc2)nc(N(C)CCN2CCC[C@H]2CO)c1C#N (stereo partly drawn) [Example 475]

1. 1000 to 31600 nM
2. < 316 nM
3. 316 to 1000 nM
4. 316 to 1000 nM
5. < 316 nM

---

- system: human full length DNMT1 (Homo sapiens (Human), UniProt P26358)
- Sequence (P26358 whole entry): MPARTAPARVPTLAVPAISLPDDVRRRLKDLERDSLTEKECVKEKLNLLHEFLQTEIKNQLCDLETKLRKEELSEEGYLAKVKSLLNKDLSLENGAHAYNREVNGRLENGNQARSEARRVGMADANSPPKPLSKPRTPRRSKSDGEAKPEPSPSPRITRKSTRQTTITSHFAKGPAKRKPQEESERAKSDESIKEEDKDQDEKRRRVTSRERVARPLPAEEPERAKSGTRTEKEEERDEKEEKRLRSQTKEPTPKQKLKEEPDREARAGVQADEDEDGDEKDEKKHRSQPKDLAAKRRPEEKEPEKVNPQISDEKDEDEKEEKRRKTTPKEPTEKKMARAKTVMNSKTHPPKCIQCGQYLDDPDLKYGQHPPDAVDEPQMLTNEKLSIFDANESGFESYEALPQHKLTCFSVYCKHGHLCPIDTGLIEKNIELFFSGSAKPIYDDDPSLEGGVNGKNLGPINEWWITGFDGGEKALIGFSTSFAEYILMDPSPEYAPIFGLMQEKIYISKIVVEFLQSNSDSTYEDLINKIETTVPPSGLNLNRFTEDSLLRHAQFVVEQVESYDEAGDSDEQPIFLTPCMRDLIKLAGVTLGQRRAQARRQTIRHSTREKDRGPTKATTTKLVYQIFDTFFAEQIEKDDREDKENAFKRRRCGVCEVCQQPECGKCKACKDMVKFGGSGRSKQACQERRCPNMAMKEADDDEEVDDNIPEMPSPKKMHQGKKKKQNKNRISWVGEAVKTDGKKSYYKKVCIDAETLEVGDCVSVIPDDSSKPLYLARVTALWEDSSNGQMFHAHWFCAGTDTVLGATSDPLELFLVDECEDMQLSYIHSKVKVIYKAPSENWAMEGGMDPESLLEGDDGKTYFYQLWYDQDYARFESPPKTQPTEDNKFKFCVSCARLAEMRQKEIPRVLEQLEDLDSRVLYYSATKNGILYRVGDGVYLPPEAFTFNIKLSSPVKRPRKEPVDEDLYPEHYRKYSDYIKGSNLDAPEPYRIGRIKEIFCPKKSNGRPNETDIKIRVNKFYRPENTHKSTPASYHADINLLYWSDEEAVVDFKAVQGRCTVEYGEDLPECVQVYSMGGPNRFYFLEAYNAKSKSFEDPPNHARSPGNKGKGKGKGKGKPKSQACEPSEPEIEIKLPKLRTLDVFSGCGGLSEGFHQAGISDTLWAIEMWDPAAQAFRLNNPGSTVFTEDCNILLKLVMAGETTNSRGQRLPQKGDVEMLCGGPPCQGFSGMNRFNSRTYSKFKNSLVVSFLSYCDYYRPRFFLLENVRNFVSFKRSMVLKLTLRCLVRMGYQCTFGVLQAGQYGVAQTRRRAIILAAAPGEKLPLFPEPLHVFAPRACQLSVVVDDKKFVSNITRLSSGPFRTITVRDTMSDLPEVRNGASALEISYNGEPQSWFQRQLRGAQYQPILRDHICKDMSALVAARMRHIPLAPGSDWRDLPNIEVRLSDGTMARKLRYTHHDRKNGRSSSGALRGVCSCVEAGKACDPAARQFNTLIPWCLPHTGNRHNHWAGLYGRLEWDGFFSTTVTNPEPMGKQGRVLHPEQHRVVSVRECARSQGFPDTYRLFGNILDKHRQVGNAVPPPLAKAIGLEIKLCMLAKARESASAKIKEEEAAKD
- assay-remarks: DNMT1 breaklight assay
- Format: biochemical
- experimental-conditions: repeated experimental runs, read-out: average IC50 against DNMT1
Structures can show the parent of a compound that is named as a salt.
For each record, write down the corresponding IC50.

Below, 5 molecules whose answers are already recorded.
1) N#Cc1c(SC(C(N)=O)c2ccccc2)nc(N2CCCC(N)C2)c(C#N)c1C1CC1 (stereo not shown)    ≤ 500 nM
2) CCc1c(C#N)c(SC(C(N)=O)c2ccccc2)nc(N2CCC(O)CC2)c1C#N (stereo not shown)    890 nM
3) CCc1c(C#N)c(N[C@@H](C(N)=O)c2ccccc2)nc(N2CCCNCC2)c1C#N    > 750 nM
4) CCc1c(C#N)c(SC(C(N)=O)c2ccccc2)nc(N2CCC23CCNCC3)c1C#N (stereo not shown) [Example 38, trifluoroacetate]    > 750 nM
5) CCN1CCCN(c2nc(SC(C(N)=O)c3ccccc3)c(C#N)c(C3CC3)c2C#N)CC1 (stereo not shown)    ≤ 500 nM

Record IC50 for all entries; do not skip any.
1. CC1CN(c2nc(SC(C(N)=O)c3ccccc3)c(C#N)c(C3CC3)c2C#N)CC(C)N1 (stereo not shown)
2. CN1CCN(c2nc(SC(C(N)=O)c3ccccc3)c(C#N)c(C3CC3)c2C#N)CC1=O (stereo not shown)

1: ≤ 500 nM; 2: > 750 nM

---

- System: erythroid progenitor cells (EPCs)
- assay-remarks: Fetal hemoglobin (HbF) ELISA in day 7 erythroid progenitor cells;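 note: for fetal hemoglobin induction normalized to vehicle-treated cells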
- Type: cell-based, human
- experimental-conditions: Homo sapiens, Erythroid progenitor cell, HbF ELISA, day 7 EPCs, 5 days; read-out: EPC ELISA (pEC50 category) (converted)
Where a name gives a salt, the structure may show the parent alone.
Please provide measured EC50 for the entries that follow.

Worked examples, 5 molecules total:
1. CN1CCCN(c2nc(SC(C(N)=O)c3ccccc3)c(C#N)c(-c3ccco3)c2C#N)CC1 (stereo not shown) [Example 135]    1 to 31.6 µM
2. CCc1c(C#N)c(SCc2ccc(N3CCCCS3(=O)=O)cc2)nc(N2CCC(NCC(C)(C)C)CC2)c1C#N [Example 604]    > 31.6 µM
3. CCc1c(C#N)c(SC(C(N)=O)c2ccncc2)nc(N2CCN(C)C(=O)C2)c1C#N (stereo not shown) [Example 10]    > 31.6 µM
4. CCc1c(C#N)c(SCc2ccc(CNC(C)=O)cc2)nc(N(C)CCOC(=O)[C@@H](N)C(C)C)c1C#N [Example 267, Trifluoroacetic Acid Salt]    1 to 31.6 µM
5. CCc1c(C#N)c(SC(C(N)=O)c2ccccc2)nc(N2CC[C@@H](N(C)C)C2)c1C#N (stereo partly shown) [Example 536]    0.316 to 1 µM

Would you mind giving EC50 for every molecule in the list below?
1. CCc1c(C#N)c(SCc2ccc(N(C)S(C)(=O)=O)cc2)nc(N2CCC(N)CC2)c1C#N [Example 587]
2. CCc1c(C#N)c(SC(C(N)=O)c2ccccc2)nc(N2CCCN(CC(=O)OC)CC2)c1C#N (stereo not shown) [Example 108]

1. < 0.316 µM
2. 0.316 to 1 µM

---

- system: DNMT1 (Homo sapiens)
- Sequence (P26358 whole entry, looked up): as the sequence (P26358 whole entry) above
- assay-remarks: DNMT1 biochemical activity, breaklight assay and/or SPA assay
- experimental-conditions: binned activity in either the breaklight or the SPA assay; read-out: DNMT1 BioChemical (pIC50 category) (converted)
Where a name gives a salt, the structure may show the parent alone.
measure: IC50

1. CCc1c(C#N)c(SCc2ccc(C(N)=O)cc2)nc(N2CCCN(C)CC2)c1C#N    0.316 to 1 µM

Please state IC50 for every compound in the list that follows.
1. CCc1c(C#N)c(SCc2ccc(OCCN(C)C)cc2)nc(N2CCCN(C)CC2)c1C#N
2. CCc1c(C#N)c(SC(C(N)=O)c2cc(OC)ccn2)nc(N2CCCN(C)CC2)c1C#N (centres unmarked)

1: 1 to 31.6 µM; 2: 1 to 31.6 µM

// each compound listed below needs its IC50
1. CCc1c(C#N)c(SCc2ccc(CNC(=O)CN)cc2)nc(N(C)C)c1C#N
2. CCc1c(C#N)c(SC(C(N)=O)c2ccc(F)cc2)nc(N2CCN(C(C)(C)CO)CC2)c1C#N (centres unmarked)

["1 to 31.6 µM", "1 to 31.6 µM"]

Items follow; give IC50 for each.
1. CCc1c(C#N)c(SC(C(N)=O)c2ccccc2)nc(N2CCC(F)(F)CC2)c1C#N (centres unmarked)
2. CCc1c(C#N)c(SC(C(N)=O)c2ccccc2)nc(N2CCC(n3ccnc3)CC2)c1C#N (centres unmarked)

1: 1 to 31.6 µM; 2: 1 to 31.6 µM

Need IC50 for each of these compounds.
1. CCc1c(C#N)c(SC(C(N)=O)c2ccccc2)nc(N(C)CCO)c1C#N (centres unmarked)
2. CCc1c(C#N)c(SCc2ccc(NS(C)(=O)=O)c(F)c2)nc(N2CCCN(C)CC2)c1C#N
3. CCc1c(C#N)c(SCc2ccc(CN)cc2)nc(N(C)C)c1C#N [Example 272, Hydrochloride]
4. CCc1c(C#N)c(SC(C(N)=O)c2ccccc2)nc(N2CCN(Cc3cnoc3)CC2)c1C#N (centres unmarked)
5. CN(CC(N)=O)c1nc(SC(C(N)=O)c2ccccc2)c(C#N)c(C2CC2)c1C#N (centres unmarked)
6. CCc1c(C#N)c(SCc2cnn(CC(O)CO)c2)nc(N2CCC(N)CC2)c1C#N (centres unmarked) [Example 380, Hydrochloride]

1. 0.316 to 1 µM
2. 0.316 to 1 µM
3. 1 to 31.6 µM
4. 0.316 to 1 µM
5. 0.316 to 1 µM
6. 0.316 to 1 µM

Can you give me IC50 for all of these, one by one?
1. CCc1c(C#N)c(SCc2csc(NC(C)=O)n2)nc(N2CCCN(C)CC2)c1C#N
2. CCc1c(C#N)c(SCc2ccc(NS(C)(=O)=O)nc2)nc(N2CCCN(C)CC2)c1C#N
3. CCc1c(C#N)c(SC(C(N)=O)c2ccccc2)nc(N2CC3NCCOC3C2)c1C#N (centres unmarked)
4. CCc1c(C#N)c(SC(C(N)=O)c2ccccc2)nc(N2CCC(N3CCNC3=O)CC2)c1C#N (centres unmarked)
5. CCc1c(C#N)c(SC(C(N)=O)c2ccccc2)nc(N2CC[C@H](OP(=O)(O)O)C2)c1C#N (some centres unmarked)
6. CCc1c(C#N)c(SCc2ccc(CNC(C)=O)cc2)nc(N(C)CCO)c1C#N

0.316 to 1 µM
0.316 to 1 µM
0.316 to 1 µM
0.316 to 1 µM
1 to 31.6 µM
1 to 31.6 µM

Can you give me IC50 for all of these, one by one?
1. N#Cc1c(SC(C(N)=O)c2ccccc2)nc(N2CCC(NCC(N)=O)CC2)c(C#N)c1C1CC1 (centres unmarked)
2. CCOc1c(C#N)c(C)nc(SC(C(N)=O)c2ccccc2)c1C#N (centres unmarked)
3. CCc1c(C#N)c(SCc2ccc(CNC(C)=O)cc2)nc(N(C)CCOC(=O)[C@@H](N)C(C)C)c1C#N [Example 267, Trifluoroacetic Acid Salt]
4. CCc1c(C#N)c(SCc2ccc(-c3ccccn3)cc2)nc(N2CCC(N3CCCC3)CC2)c1C#N
5. CCc1c(C#N)c(SCc2ccc(B(O)O)cc2)nc(N2CCCN(C)CC2)c1C#N

< 0.316 µM
0.316 to 1 µM
1 to 31.6 µM
0.316 to 1 µM
0.316 to 1 µM

For every listed record, write down its IC50.
1. CCc1c(C#N)c(SCc2ccc(NC(C)=O)cc2)nc(N(C)C)c1C#N
2. CCc1c(C#N)c(S[C@@H](C(N)=O)c2ccccc2)nc(N2CC[C@@H](O)C2)c1C#N
3. CCc1c(C#N)c(SC(C(N)=O)c2ccccc2)nc(N2CCCN(C)CC2)c1C#N (single isomer, unassigned; isomer 1) [Example 254]
4. CCc1c(C#N)c(SCc2ccc(CNCCO)cc2)nc(N2CCCN(C)CC2)c1C#N
5. N#Cc1c(SC(C(N)=O)c2ccccc2)nc(N2CCNC(=O)C2)c(C#N)c1C1CC1 (centres unmarked)
6. CCc1c(C#N)c(SC(C(N)=O)c2ccccc2)nc(SC(C(N)=O)c2ccccc2)c1C#N (centres unmarked)
7. CCc1c(C#N)c(SCc2ccc(NC(=O)OC(C)(C)C)cc2)nc(N2CCCN(C)CC2)c1C#N
8. CCc1c(C#N)c(SC(C(N)=O)c2ccccc2)nc(N2CCCN(CC(C)(C)O)CC2)c1C#N (centres unmarked)

1. 0.316 to 1 µM
2. 0.316 to 1 µM
3. < 0.316 µM
4. 0.316 to 1 µM
5. 0.316 to 1 µM
6. 0.316 to 1 µM
7. 0.316 to 1 µM
8. 0.316 to 1 µM
